target: human protease activated receptor 1 (PAR1) (Homo sapiens, UniProt P25116); construct: the cell stably expresses the endogenous human PAR1 receptor and the endogenous purinergic receptor P2Y2; endogenous in cells; test: Cellular functional in vitro test (aequorin luminescence, PAR1 test cell); conditions: recombinant HEK293-derived cell line expressing aequorin; PAR1 agonist added at its EC50 5 minutes after test substance
Sequence (P25116 22-425): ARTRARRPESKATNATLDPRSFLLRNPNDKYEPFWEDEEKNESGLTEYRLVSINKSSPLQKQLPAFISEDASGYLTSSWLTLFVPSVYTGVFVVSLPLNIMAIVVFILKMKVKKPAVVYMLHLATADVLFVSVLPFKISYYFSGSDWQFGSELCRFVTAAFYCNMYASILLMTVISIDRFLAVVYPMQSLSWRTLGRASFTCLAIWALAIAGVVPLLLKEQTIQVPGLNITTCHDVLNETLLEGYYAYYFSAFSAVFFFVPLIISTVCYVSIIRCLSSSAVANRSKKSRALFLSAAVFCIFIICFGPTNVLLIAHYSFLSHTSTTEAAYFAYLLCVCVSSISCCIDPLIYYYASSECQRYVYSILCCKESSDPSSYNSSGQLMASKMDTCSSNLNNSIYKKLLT
Measured Quantity: pIC50
pIC50 here: minus log base 10 of the concentration, concentration in moles per litre.

### Prompt For the molecule CCc1ccc(C2CC(c3nc(Cc4ccccc4Cl)no3)CN(C(=O)N3CCOCC3)C2)cc1 (racemic) , what pIC50 is on record?
### Response 8.00

### Prompt Please answer likewise for CC(C)(C)c1noc(C2CC(c3ccc(C(F)(F)F)cc3)CN(C(=O)N3CCC(C#N)CC3)C2)n1 (racemic)
### Response 7.83

### Prompt Lookup COCCc1noc(C2CC(c3ccc(OC(F)(F)F)c(C)c3)CN(C(=O)N3CCOCC3)C2)n1 (single isomer, unassigned)
### Response 8.52

### Prompt How about COCc1nc(C2CC(c3ccc(C(F)(F)F)cc3)CN(C(=O)N3CCOCC3)C2)no1 (centres unmarked) ?
### Response 7.61

### Prompt Could you do the same for COCCc1noc(C2CC(c3ccc(C)c(C(F)(F)F)c3)CN(C(=O)N3CCOCC3)C2)n1 (single isomer, unassigned) , please?
### Response 7.07

### Prompt What about CCc1ccc(C2CC(c3nc(CCOC)no3)CN(C(=O)N3CCC(O)CC3)C2)cc1 (single isomer, unassigned) [Example 549] ?
### Response 7.90

### Prompt // same read-out, input: Cc1ccc(C2CC(c3nc(-c4cccc(F)c4)no3)CN(C(=O)N3CCC(O)CC3)C2)cc1C (racemic)
### Response 8.19

### Prompt Consider next the molecule CCc1ccc(C2CC(c3nc(C(C)(C)O)no3)CN(C(=O)N3CCC(O)CC3)C2)cc1 (racemic) in the same way.
### Response 7.27

### Prompt Lookup CC(C)c1nc(C2CC(c3ccc(C(F)(F)F)cc3)CN(C(=O)N3CCOCC3)C2)no1 (racemic)
### Response 8.17

### Prompt Entry to check: O=C(N1CCC(O)C1)N1CC(c2ccc(C(F)(F)F)cc2)CC(c2nc(C3CC3)no2)C1 (centres unmarked)
### Response 8.03

### Prompt Note, next up: CCc1ccc(C2CC(c3nc(C(C)(C)C)no3)CN(C(=O)N3CCC(O)CC3)C2)cc1 (racemic)
### Response 7.32

### Prompt Please answer likewise for Cc1noc(C2CC(c3ccc(C(F)(F)F)cc3)CN(C(=O)N3CCOCC3)C2)n1 (single isomer, unassigned)
### Response 7.60

### Prompt Record: CC(C)(O)Cc1noc(C2CC(c3ccc(C(F)(F)F)cc3)CN(C(=O)N3CCC(C#N)CC3)C2)n1 (racemic)
### Response 6.85

### Prompt Then what about the molecule Cc1ccncc1-c1csc(C2CC(c3ccc(C(F)(F)F)cc3)CN(C(=O)N3CCOCC3)C2)n1 (racemic) ?
### Response 7.33

---

biological target: human protease activated receptor 1 (PAR1) (Homo sapiens); construct: the cell stably expresses the endogenous human PAR1 receptor and the endogenous purinergic receptor P2Y2; endogenous in cells; host or cells: HEK293-derived recombinant cell line constitutively expressing mitochondrial aequorin; assay: Cellular functional in vitro test (aequorin luminescence, PAR1 test cell); assay type: cell-based; details: recombinant HEK293-derived cell line expressing aequorin; PAR1 agonist added at its EC50 5 minutes after test substance
Measured Quantity: pIC50
Remember, pIC50 is on a log scale: it is -log10 of the molar concentration.

### Prompt I would be grateful if you could share the reported pIC50 for CCc1csc(C2CC(c3ccc(OC(F)(F)F)cc3)CN(C(=O)N3CCOCC3)C2)n1 (racemic) [Example 490] .
### Response 7.60

### Prompt Try this molecule too: Cc1ccc(C2CC(c3nc(C(C)C)no3)CN(C(=O)N3CCC(O)CC3)C2)cc1C (racemic) [Example 234]
### Response 7.81

### Prompt Please do the same for CCc1noc(C2CC(c3ccc(OC(F)(F)F)cc3)CN(C(=O)N3CCC(C#N)CC3)C2)n1 (racemic) [Example 519] as well.
### Response 7.68

### Prompt Next molecule up: O=C(N1CCOCC1)N1CC(c2ccc(OC(F)(F)F)cc2)CC(c2nc(C3CCC3)no2)C1 (racemic) [Example 513]
### Response 8.29
